target or system: mGluR3 (Rattus norvegicus)
Sequence (P31422 23-879): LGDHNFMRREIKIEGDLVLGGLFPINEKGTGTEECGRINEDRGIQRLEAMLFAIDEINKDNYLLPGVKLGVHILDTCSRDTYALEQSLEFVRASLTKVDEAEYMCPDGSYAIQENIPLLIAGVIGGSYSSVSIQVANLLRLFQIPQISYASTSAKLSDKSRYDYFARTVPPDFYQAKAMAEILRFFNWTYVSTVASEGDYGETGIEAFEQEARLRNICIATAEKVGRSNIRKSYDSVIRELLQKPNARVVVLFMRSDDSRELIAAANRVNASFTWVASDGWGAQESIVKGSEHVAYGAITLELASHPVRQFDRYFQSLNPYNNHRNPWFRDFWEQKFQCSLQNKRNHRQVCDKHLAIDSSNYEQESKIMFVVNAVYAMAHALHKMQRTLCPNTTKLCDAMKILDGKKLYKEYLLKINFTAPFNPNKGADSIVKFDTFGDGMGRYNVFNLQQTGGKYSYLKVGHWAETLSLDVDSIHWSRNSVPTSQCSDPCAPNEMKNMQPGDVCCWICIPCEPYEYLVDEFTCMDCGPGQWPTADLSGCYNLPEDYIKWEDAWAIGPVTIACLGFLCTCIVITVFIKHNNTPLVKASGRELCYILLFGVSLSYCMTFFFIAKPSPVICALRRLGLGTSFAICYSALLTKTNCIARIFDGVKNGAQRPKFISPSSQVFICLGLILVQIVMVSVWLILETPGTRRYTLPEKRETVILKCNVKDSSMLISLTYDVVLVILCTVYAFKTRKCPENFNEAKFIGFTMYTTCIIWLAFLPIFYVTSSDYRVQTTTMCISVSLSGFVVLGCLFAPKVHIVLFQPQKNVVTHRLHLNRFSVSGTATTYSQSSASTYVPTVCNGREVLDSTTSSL
Sequence (P31422 23-879): as above
settings: read-out: EC50 of glutamate-dependent decrease in ensemble FRET; HEK293T cells
assay readout: EC50

> print(dat)
                              compound  recorded.value
1  N[C@@H](CCC(=O)O)C(=O)O [glutamate]          500 nM
